test: Human HepG2 cell viability assay in 384 well format
Type: toxicity, cell-based
Set-up: dose 125 nL, time 70.5 hour; concentration not given beside the values
assay setup: HepG2 cells, read-out: Inhibition
Property: cytotoxicity at 70.5 h; scope: individual molecules
readout: cytotoxicity at 70.5 h (%)

INSERT INTO results (molecule, readout, reading) VALUES
  ('COc1ccc(-c2nc(C#N)c(N(C)C)o2)cc1OC', 'cytotoxicity at 70.5 h', -5.52),
  ('O=S(=O)(N[C@H]1CC[C@H]1NC1Cc2ccccc2C1)c1cccnc1', 'cytotoxicity at 70.5 h', -6.2),
  ('CN1[C@H](CO)C[C@H](CNCc2ccc(Cl)c(F)c2)[C@@H]1c1ccccc1F', 'cytotoxicity at 70.5 h', -3.08),
  ('O=S(=O)(C1CC1)N1CC[C@@H](OCC2CC2)[C@@H]1Cc1ccncc1', 'cytotoxicity at 70.5 h', -4.77),
  ('CC(C)c1nc(CN2CCCCC2)cs1', 'cytotoxicity at 70.5 h', -4.92),
  ('Cc1ccc2c(c1)C1(CCNCC1)CC2NCCO (stereo not given)', 'cytotoxicity at 70.5 h', -1.58),
  ('CC(C)N1CCC(Nc2ccn(CCC#N)n2)C1=O (stereo not given)', 'cytotoxicity at 70.5 h', -2.6),
  ('c1ccc(N2CC[C@@H]3CN(Cc4ccncc4)CCO[C@@H]3C2)cc1', 'cytotoxicity at 70.5 h', -1.73),
  ('COCC1CN(Cc2ccoc2)Cc2cn(C)nc21 (stereo not given)', 'cytotoxicity at 70.5 h', -7.39),
  ('Cc1nn(C)cc1-c1cncn1CCc1ccc2c(c1)OCCO2', 'cytotoxicity at 70.5 h', -9.48),
  ('CC(O)CN1CCN(Cc2cccc(C#N)c2)CC1 (stereo not given)', 'cytotoxicity at 70.5 h', -4.63),
  ('Cc1ccccc1C(NC(=O)NCC1(O)CCC1)C1CC1 (stereo not given)', 'cytotoxicity at 70.5 h', 5.34),
  ('OCCN1CCN(Cc2cc(Cl)cc3cccnc23)CC1', 'cytotoxicity at 70.5 h', 4.47),
  ('COc1cc(NC(=O)c2cscn2)ncn1', 'cytotoxicity at 70.5 h', 22.1),
  ('O=C(CNc1ccc(F)cc1OCC(F)(F)F)NCC(F)(F)F', 'cytotoxicity at 70.5 h', 13.1),
  ('COc1ccc(/C=C/CN2CCC3(C2)CN(C)C(=O)O3)cc1 (stereo not given)', 'cytotoxicity at 70.5 h', -6.62),
  ('CCCc1noc(CN2CCOCC2C)n1 (stereo not given)', 'cytotoxicity at 70.5 h', 20.1),
  ('Cn1ccc(CN2CCC(Oc3ccccc3)CC2)cc1=O', 'cytotoxicity at 70.5 h', -12),
  ('O=C1OCCN1Cc1ccc(C(F)(F)F)cc1F', 'cytotoxicity at 70.5 h', -6.21),
  ('COc1c(-c2ccc(O)cc2)oc2cc(O)cc(O)c2c1=O [ISOKAEMPFERIDE]', 'cytotoxicity at 70.5 h', -8.89),
  ('CC(=O)c1ccc(N2CCN(C(=O)c3cc(C(C)C)nn3C)CC2)cc1', 'cytotoxicity at 70.5 h', -14.7),
  ('Cc1cc(N(C)C)nc(N2CC(n3cccn3)C2)n1', 'cytotoxicity at 70.5 h', 5.13),
  ('COc1ccccc1CN1CCCC(n2cccn2)C1 (stereo not given)', 'cytotoxicity at 70.5 h', -1.34),
  ('O=C(CCc1cn[nH]c1)N1C[C@@H](CN2CCOCC2)C[C@H](CO)C1', 'cytotoxicity at 70.5 h', 8.69),
  ('CN(C)Cc1csc(-c2nccn2CCc2cccnc2)c1', 'cytotoxicity at 70.5 h', -8);
